Recorded values, source the supplement of paper PMC10567573.

B1: HESX1 (parent)
chain: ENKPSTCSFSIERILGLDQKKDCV

# Variants of: B1
# assay-notes: protein stability index of a GFP-peptide fusion (GPS, HEK-293T) (PSI 1-6); higher = more stable;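 further: lentivirally expressed fusions sorted by FACS into six bins by GFP to DsRed ratio, PSI derived from sequencing read proportions per bin multiplied by bin number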
# conditions: c terminus: a fixed tail appended
protein stability index values, listed per item
Respond using a number only.

Please review the entries below; each comes with its answer.
biopolymer-sequence: ENKPSTCSFSIERSLGLDQKKDCV [I14S]
experimental-value: 4.52
//
biopolymer-sequence: ENKPSTCSFSIWRILGLDQKKDCV [E12W]
experimental-value: 1.48
//
biopolymer-sequence: ENKPSTCSFSIDRILGLDQKKDCV [E12D]
experimental-value: 3.8
//
biopolymer-sequence: ENKPSTCSFSIERILGLDEKKDCV [Q19E]
experimental-value: 3.23
//
biopolymer-sequence: ENKPSTCSFSIERILGLDQKKDPV [C23P]
experimental-value: 3.29
//
biopolymer-sequence: ENKPSTCSFSIERIGGLDQKKDCV [L15G]
experimental-value: 3.27
//
biopolymer-sequence: ENKPSTCSFSIEWILGLDQKKDCV [R13W]
experimental-value: 1.75
//
biopolymer-sequence: ENKPSTCSWSIERILGLDQKKDCV [F9W]
experimental-value: 2.42

Short answer for ENKPSTCSFSITRILGLDQKKDCV [E12T] : protein stability index was 2.94

Short answer for ENKPSTCSFSIERILGLDQKKDKV [C23K] : protein stability index was 3.41

Short answer for ENDPSTCSFSIERILGLDQKKDCV [K3D] : protein stability index was 3.66

Short answer for ENKASTCSFSIERILGLDQKKDCV [P4A] : protein stability index was 2.99
